Hello, the source for this data is paper PMC5071372, in case you need it.

Biological target: T1, Csk L-SH2 domain (A73–A178), reduced form (human, UniProt P41240 73-178)
T1 construct: C-terminal Src kinase (Csk), human, SH2 domain with part of the SH3-SH2 linker, residues A73-A178; C122 and C164 as free thiols; Cloned into pTWIN1 as described in Liu et al. 2009; 15N/13C-labelled for the NMR experiments; PDB 3EAC is the oxidized form of the same construct; also called reduced SH2; reduced L-SH2; source: E. coli BL21 (DE3) RIL, purified (chitin beads, intein cleaved with 50 …)
T1 sequence (looked up): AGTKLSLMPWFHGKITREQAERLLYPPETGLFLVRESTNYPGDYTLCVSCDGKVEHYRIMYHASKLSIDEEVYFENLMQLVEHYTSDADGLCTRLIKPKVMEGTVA
Experiment: other fluorescence titration; intrinsic tryptophan fluorescence of L-SH2 (typically 5 μmol/L) titrated with Cbp peptide; 25 °C, 3 mL of 50 mmol/L Tris-HCl pH 7.5; excitation 288 nm, emission 320 nm
Details: both partners purified
Square brackets hold non-standard residues; d marks the D form. Ends that are not written are not given here. pY = N[C@@H](Cc1ccc(OP(=O)(O)O)cc1)C(=O)O
measurement-name: pKd
Scale: negative log10 of molar concentration, which is what pKd denotes.

Entry ISAM[pY]SSVNK (also called Cbp peptide; Cbp-phosphorylated peptide; source: synthetic peptide (GenScript, solid-phase synthesis)) [Cbp phosphopeptide ISAMpYSSVNK] has what pKd?
6.28
